Catalogue of molecules with associated TGI
# System: SW-620 colon
# protocol-notes: NCI tumour cell line growth inhibition, 48 h

Past entries and their recorded results:
O=C(CSc1nc2ccc([N+](=O)[O-])cc2[nH]1)Nc1ccc(F)c(Cl)c1	15.7 µM
Nc1ccccc1Nc1ccccc1C(=O)[O-].Nc1ccccc1Nc1ccccc1C(=O)[O-].[Cu+2]	> 100 µM

Moving on to the next molecule.
Please give the documented TGI of CCOC(=O)c1cc(C2(O)CCN(Cc3ccccc3)C2=O)c(-c2cc(C)no2)[nH]1 (stereo not drawn)
> 100 µM

====

# System: SK-OV-3 ovarian
# protocol-notes: NCI tumour cell line growth inhibition, 48 h
Let's look at some compounds and their measured TGI.

Known TGI results, listed for orientation:
O=C(c1ccc2ccccc2c1)c1c(C(F)(F)F)n([O-])c2cc(Cl)c(Cl)cc2[n+]1=O	3.15 µM
Cc1c(S(=O)(=O)c2ccccc2)c(N)n(Cc2ccccc2)c1C	> 100 µM

For SK-OV-3 ovarian, give TGI of the listed compound: COc1ccc(NC(=O)Nc2n[nH]c3ccccc23)cc1
> 100 µM
